Test system: SK-OV-3 ovarian
testMethodNotes: NCI-60 one-dose screen, 48 h (100 = growth as untreated, 0 = no growth, -100 = all killed)
details: 10 µM
Compounds without any hit were thinned out: in the full panel of roughly 83,000, 20% have a hit.
So I've got a bunch of molecules here, and I need their growth values.
Give bare numbers, in %.

molecule="OCC1OC(OC2C(O)C(CO)OC2(CO)OC2OC(CO)C(O)C(O)C2O)C(O)C(O)C1O (configuration not stated)" experimentalreadout=growth valuemeasured=108
molecule=O=C(Cc1ccccc1)Cc1ccccc1 experimentalreadout=growth valuemeasured=99.8
molecule=N#CCc1ccc([N+](=O)[O-])cc1 experimentalreadout=growth valuemeasured=101
molecule=C1CNC(C2=NCCN2)=N1 experimentalreadout=growth valuemeasured=104
molecule="C#C[C@H]1CCCCCC1O (some centres not stated)" experimentalreadout=growth valuemeasured=110
molecule=O=[N+]([O-])c1cccc(C(F)(F)F)c1 experimentalreadout=growth valuemeasured=106

Read the next record carefully.
INPUT: Output measured growth for this item: CN(C)c1ccc2oc(=O)c3ccccc3c2c1
OUTPUT: 101
